In this section we review reported MIC values for a set of compounds.
# System: Fusarium oxysporum
# procedure_details: Antimicrobial activity against Fusarium oxysporum after 48 hrs by microdilution assay
# Assay type: functional

[
  {
    "compound": "O=C(Nc1nc2ccccc2s1)c1c(Nc2ccccc2)n[nH]c1/N=C\\c1cn(-c2ccccc2)nc1-c1ccccc1",
    "measure_unit": "µg/mL",
    "MIC": 25
  },
  {
    "compound": "Cc1cc(O)n2nc(Nc3ccccc3)c(C(=O)Nc3nc4ccccc4s3)c2n1",
    "measure_unit": "µg/mL",
    "MIC": 100
  },
  {
    "compound": "O=C(Nc1nc2ccccc2s1)c1c(Nc2ccccc2)nn2c(-c3cccs3)ccnc12",
    "measure_unit": "µg/mL",
    "MIC": 6.25
  },
  {
    "compound": "O=C1CSC(CC(=O)Nc2nc3ccccc3s2)=N1",
    "measure_unit": "µg/mL",
    "MIC": 100
  },
  {
    "compound": "C[C@@H]1C[C@@H]([C@H](O)CC2CC(=O)NC(=O)C2)C(=O)[C@@H](C)C1 [CYCLOHEXIMIDE]",
    "measure_unit": "µg/mL",
    "MIC": 3.12
  },
  {
    "compound": "N#C/C(C(=O)Nc1nc2ccccc2s1)=C1/SC=C(c2ccccc2)N1c1ccccc1",
    "measure_unit": "µg/mL",
    "MIC": 100
  },
  {
    "compound": "CCOC(=O)c1sc(Nc2ccccc2)c(C(=O)Nc2nc3ccccc3s2)c1N",
    "measure_unit": "µg/mL",
    "MIC": 100
  },
  {
    "compound": "Cc1cc(C)c2c(n1)[nH]n1c(=N)c(C(=O)Nc3nc4ccccc4s3)nnc21",
    "measure_unit": "µg/mL",
    "MIC": 25
  },
  {
    "compound": "N#C/C(C(=O)Nc1nc2ccccc2s1)=C1\\SCC(=O)N1c1ccccc1",
    "measure_unit": "µg/mL",
    "MIC": 100
  },
  {
    "compound": "Nc1[nH]nc(-c2cn(-c3ccccc3)nc2-c2ccccc2)c1C(=O)Nc1nc2ccccc2s1",
    "measure_unit": "µg/mL",
    "MIC": 50
  },
  {
    "compound": "O=c1c2c(Nc3ccccc3)n[nH]c2ncn1-c1nc2ccccc2s1",
    "measure_unit": "µg/mL",
    "MIC": 50
  },
  {
    "compound": "Nc1c(C(=O)Nc2nc3ccccc3s2)sc(=S)n1-c1ccccc1",
    "measure_unit": "µg/mL",
    "MIC": 12.5
  },
  {
    "compound": "Nc1c(C(=O)c2ccccc2)sc(Nc2ccccc2)c1C(=O)Nc1nc2ccccc2s1",
    "measure_unit": "µg/mL",
    "MIC": 100
  },
  {
    "compound": "Nc1sc2c(c1C(=O)Nc1nc3ccccc3s1)CCCC2",
    "measure_unit": "µg/mL",
    "MIC": 100
  }
]
